target: T1, shFcRn (soluble human FcRn) (human, UniProt P55899 24-297; P61769 21-119); assay: SPR, hFcRn immobilized on chip, pH 6.0
T1 construct: extracellular domain; Printed only as 'soluble human FcRn'; also called hFcRn (immobilized on a chip)
T1 sequence (P55899 24-297 limits assumed, chain 1 of 2): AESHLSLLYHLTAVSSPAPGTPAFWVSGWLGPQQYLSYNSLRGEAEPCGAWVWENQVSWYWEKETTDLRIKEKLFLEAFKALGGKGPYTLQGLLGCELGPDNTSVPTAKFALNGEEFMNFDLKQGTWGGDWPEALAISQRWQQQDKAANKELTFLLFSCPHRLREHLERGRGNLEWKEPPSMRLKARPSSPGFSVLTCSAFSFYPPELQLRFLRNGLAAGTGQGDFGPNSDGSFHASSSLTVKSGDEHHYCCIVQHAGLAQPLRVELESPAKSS
T1 sequence (P61769 21-119 limits assumed, chain 2 of 2): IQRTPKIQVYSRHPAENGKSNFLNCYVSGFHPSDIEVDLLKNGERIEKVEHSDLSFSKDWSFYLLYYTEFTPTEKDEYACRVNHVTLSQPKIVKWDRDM
For each of the binders below, state its pKd.
Answers are plain numbers, as −log10 of the molar value.

Examples with their reported pKd follow.
HL161AN variant No. 14 (LC:N25Q, HC:Q82S) (antibody, human IgG1, V domains shown, Variable domains only) VL: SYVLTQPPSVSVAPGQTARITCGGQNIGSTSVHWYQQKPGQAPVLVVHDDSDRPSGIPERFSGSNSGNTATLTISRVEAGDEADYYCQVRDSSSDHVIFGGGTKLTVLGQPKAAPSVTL VH: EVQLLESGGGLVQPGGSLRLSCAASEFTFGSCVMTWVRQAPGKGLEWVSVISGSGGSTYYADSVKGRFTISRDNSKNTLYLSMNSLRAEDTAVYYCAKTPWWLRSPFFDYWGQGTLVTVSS
9.70
HL161AN variant No. 20 (LC:N25Q, HC:C32Y Q82S) (antibody, human IgG1, V domains shown, Variable domains only) VL: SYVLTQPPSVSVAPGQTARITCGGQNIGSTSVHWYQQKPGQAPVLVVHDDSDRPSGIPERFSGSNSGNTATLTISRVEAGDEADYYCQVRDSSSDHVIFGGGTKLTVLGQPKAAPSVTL VH: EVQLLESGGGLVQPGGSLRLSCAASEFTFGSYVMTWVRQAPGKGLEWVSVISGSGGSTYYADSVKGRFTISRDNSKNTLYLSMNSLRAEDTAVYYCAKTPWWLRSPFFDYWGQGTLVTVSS
9.77
HL161AN variant No. 1 (LC:N25S, HC:C32S) (antibody, V domains shown, also called HL161ANS; #1 (HL161ANS)) VL: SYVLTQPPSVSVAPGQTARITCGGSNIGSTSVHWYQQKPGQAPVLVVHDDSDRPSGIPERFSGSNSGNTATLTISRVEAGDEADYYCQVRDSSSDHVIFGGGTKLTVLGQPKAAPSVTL VH: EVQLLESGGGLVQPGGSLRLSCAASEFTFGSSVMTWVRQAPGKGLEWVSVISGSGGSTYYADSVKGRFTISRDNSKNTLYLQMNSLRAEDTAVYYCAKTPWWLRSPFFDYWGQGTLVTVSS
9.92
HL161AN variant No. 21 (LC:N25Q, HC:C32Y Q82T) (antibody, human IgG1, V domains shown, Variable domains only) VL: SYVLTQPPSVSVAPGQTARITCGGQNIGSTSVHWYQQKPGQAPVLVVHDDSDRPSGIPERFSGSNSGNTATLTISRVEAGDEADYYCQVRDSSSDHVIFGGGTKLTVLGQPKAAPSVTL VH: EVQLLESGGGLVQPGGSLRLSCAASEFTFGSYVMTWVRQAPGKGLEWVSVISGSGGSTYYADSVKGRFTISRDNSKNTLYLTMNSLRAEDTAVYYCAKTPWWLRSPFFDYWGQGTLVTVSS
9.74
HL161AN variant No. 6 (LC:N25S, HC:C32S Q82S) (antibody, human IgG1, V domains shown, Variable domains only) VL: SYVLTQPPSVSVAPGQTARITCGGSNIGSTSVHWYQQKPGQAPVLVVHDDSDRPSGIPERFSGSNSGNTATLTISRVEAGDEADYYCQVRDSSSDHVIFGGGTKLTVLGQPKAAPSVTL VH: EVQLLESGGGLVQPGGSLRLSCAASEFTFGSSVMTWVRQAPGKGLEWVSVISGSGGSTYYADSVKGRFTISRDNSKNTLYLSMNSLRAEDTAVYYCAKTPWWLRSPFFDYWGQGTLVTVSS
9.89
HL161AN variant No. 10 (LC:N25S, HC:C32Y Q82T) (antibody, human IgG1, V domains shown, Variable domains only) VL: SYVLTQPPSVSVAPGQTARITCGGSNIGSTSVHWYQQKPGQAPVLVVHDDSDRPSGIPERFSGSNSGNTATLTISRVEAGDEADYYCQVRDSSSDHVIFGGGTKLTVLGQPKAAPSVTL VH: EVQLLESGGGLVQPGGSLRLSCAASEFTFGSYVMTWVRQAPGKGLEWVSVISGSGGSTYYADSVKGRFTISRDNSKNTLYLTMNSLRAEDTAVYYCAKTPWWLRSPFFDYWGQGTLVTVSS
9.82
HL161AN variant No. 17 (LC:N25Q, HC:C32S Q82S) (antibody, human IgG1, V domains shown, Variable domains only) VL: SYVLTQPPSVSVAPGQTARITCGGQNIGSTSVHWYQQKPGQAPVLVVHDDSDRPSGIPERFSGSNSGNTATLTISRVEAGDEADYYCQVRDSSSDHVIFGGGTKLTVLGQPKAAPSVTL VH: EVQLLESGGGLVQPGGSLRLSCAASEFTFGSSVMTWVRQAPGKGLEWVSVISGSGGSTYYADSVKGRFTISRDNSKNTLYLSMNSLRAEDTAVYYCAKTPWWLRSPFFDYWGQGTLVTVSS
9.66
HL161AN variant No. 16 (LC:N25Q, HC:Q82E) (antibody, human IgG1, V domains shown, Variable domains only) VL: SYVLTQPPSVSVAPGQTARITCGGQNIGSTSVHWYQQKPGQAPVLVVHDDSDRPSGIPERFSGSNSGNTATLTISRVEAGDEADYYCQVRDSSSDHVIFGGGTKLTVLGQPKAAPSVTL VH: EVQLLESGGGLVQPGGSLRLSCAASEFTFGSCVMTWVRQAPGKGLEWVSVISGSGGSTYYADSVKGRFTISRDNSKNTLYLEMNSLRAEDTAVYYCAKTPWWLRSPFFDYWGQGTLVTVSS
9.48
HL161AN variant No. 15 (LC:N25Q, HC:Q82T) (antibody, human IgG1, V domains shown, Variable domains only) VL: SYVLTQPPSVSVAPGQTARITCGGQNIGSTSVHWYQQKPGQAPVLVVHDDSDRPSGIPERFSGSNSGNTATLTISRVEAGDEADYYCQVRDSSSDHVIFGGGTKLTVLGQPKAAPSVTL VH: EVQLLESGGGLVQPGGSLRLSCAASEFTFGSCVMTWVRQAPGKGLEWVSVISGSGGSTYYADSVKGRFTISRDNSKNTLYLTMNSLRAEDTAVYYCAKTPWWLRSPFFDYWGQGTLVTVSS
9.48

Please find the next binder below.
pKd recorded for this binder, HL161AN variant No. 5 (LC:N25S, HC:Q82E) (antibody, human IgG1, V domains shown, Variable domains only) VL: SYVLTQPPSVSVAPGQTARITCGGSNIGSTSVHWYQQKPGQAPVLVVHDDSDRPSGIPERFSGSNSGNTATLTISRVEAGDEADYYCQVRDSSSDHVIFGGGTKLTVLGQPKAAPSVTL VH: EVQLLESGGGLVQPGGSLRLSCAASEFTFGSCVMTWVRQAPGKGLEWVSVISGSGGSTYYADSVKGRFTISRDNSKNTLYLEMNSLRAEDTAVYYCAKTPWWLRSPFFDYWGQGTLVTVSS , is 9.80
